system: Escherichia coli TOP10; experiment: shrunken log2 fold change of peptide-encoding DNA abundance (4.5 h post-induction vs induction); higher = less antimicrobial activity (less host growth inhibition); settings: time post-induction: 4.5 h; library: site-saturation at positions 5, 18, 19, 20;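 note: peptides expressed intracellularly from a pBAD plasmid library in pooled LB shake-flask culture, induced with 0.3% L-arabinose, DNA abundance read by NGS, three biological replicates, DESeq2 with apeglm shrinkage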
# binarize shrunken log2 fold change: threshold 0.1 inclusive, high side label 1, low side label 0

Ask: Please tell me: is the sequence RRIRSRPPRLPRPRPRPQYNPRP at or over 0.1 in terms of shrunken log2 fold change?
Reply: label 0

Ask: Same read-out for RRIRPRPPRLPRPRPRPDVKPRP ?
Reply: label 0

Ask: Ok, now RRIRYRPPRLPRPRPRPKGRPRP
Reply: label 0

Ask: And for RRIRCRPPRLPRPRPRPHPLPRP ?
Reply: label 1

Ask: Please give the result for RRIRIRPPRLPRPRPRPVFQPRP too.
Reply: label 0

Ask: Again, but for RRIRMRPPRLPRPRPRPGWGPRP
Reply: label 1

Ask: Please do the same for RRIRARPPRLPRPRPRPESGPRP as well.
Reply: label 1

Ask: Thanks! And RRIRLRPPRLPRPRPRPTIRPRP ?
Reply: label 0

Ask: For RRIRFRPPRLPRPRPRPITNPRP then?
Reply: label 0

Ask: Another sequence to check: RRIRKRPPRLPRPRPRPSETPRP
Reply: label 0

Ask: Same thing, different sequence: RRIRWRPPRLPRPRPRPRTGPRP
Reply: label 1

Ask: Note, next up: RRIRQRPPRLPRPRPRPHPRPRP
Reply: label 1

Ask: Then what about the sequence RRIRTRPPRLPRPRPRPACNPRP ?
Reply: label 0

Ask: Ok, now RRIRGRPPRLPRPRPRPYIIPRP
Reply: label 0

Ask: Similarly, RRIRIRPPRLPRPRPRPMQTPRP ?
Reply: label 0

Ask: And for RRIRDRPPRLPRPRPRPSGTPRP ?
Reply: label 0

Ask: Repeat for the following sequence: RRIRCRPPRLPRPRPRPWFQPRP
Reply: label 0

Ask: Next: RRIRDRPPRLPRPRPRPRTKPRP
Reply: label 1

Ask: Proceed to RRIRWRPPRLPRPRPRPILNPRP
Reply: label 0

Ask: Please give the result for RRIRTRPPRLPRPRPRPEFAPRP too.
Reply: label 0

Ask: Subsequent entry: RRIRMRPPRLPRPRPRPTNLPRP
Reply: label 0

Ask: Please answer likewise for RRIRFRPPRLPRPRPRPCTTPRP
Reply: label 0

Ask: Can you check RRIRMRPPRLPRPRPRPSHNPRP next?
Reply: label 0

Ask: Now try RRIRPRPPRLPRPRPRPPQHPRP .
Reply: label 1

Ask: One more sequence: RRIRPRPPRLPRPRPRPPHHPRP
Reply: label 1

Ask: What would you report for RRIRERPPRLPRPRPRPTIGPRP ?
Reply: label 0

Ask: // query: RRIRFRPPRLPRPRPRPASPPRP
Reply: label 1

Ask: Here is the next sequence: RRIRIRPPRLPRPRPRPGYRPRP
Reply: label 0

Ask: Now consider RRIRMRPPRLPRPRPRPPEAPRP and answer again.
Reply: label 1

Ask: Then this sequence: RRIRIRPPRLPRPRPRPDHEPRP
Reply: label 1

Ask: Moving on to RRIRSRPPRLPRPRPRPHIVPRP
Reply: label 0

Ask: And RRIRLRPPRLPRPRPRPGAWPRP ?
Reply: label 0
